Can you tell me Activity for the items I'm about to list?
# System: Ehrlich
# assayMethodText: Antineoplastic activity against mouse EAC allografted in CF1 mouse assessed as packed cell volume on day 7 measured at 33 mg/kg (reference value: 32.75 +/- 7.87%)
# Format: functional
State the answer as a number, implicitly in %.

Inquiry: Check the records and state Activity for O=C(N[C@@H](Cc1ccccc1)C(=O)OC(Br)CBr)OCc1ccccc1 (stereo partly specified)
Reply text: 1.4

Inquiry: Check the records and state Activity for O=C(O)CNC(=O)OCc1ccccc1
Reply text: 22

Inquiry: Check the records and state Activity for O=C(CCCCCNC(=O)OCc1ccccc1)OC(Br)CBr (stereo unspecified)
Reply text: 30

Inquiry: Check the records and state Activity for N[C@@H](Cc1ccc(N(CCCl)CCCl)cc1)C(=O)O
Reply text: 3

Inquiry: Check the records and state Activity for Cc1ccc(S(=O)(=O)N[C@@H](Cc2ccc(O)cc2)C(=O)OCC#N)cc1
Reply text: 15.8

Inquiry: Check the records and state Activity for N#CCOC(=O)[C@H](Cc1ccccc1)NC(=O)c1ccccc1
Reply text: 13.2
